Origin of the recorded values: patent US20250333501A1

Record form. Attribute: pEC50. Fill in for each entry.
- ASSAYED_SYSTEM: T1, CLDN6 endogenously expressed by human cancer cell lines (ARK2, OVCA429) (human, UniProt P56747 1-220)
- T1 construct: Untagged endogenous protein; also called Endogenous CLDN6+
- T1 sequence: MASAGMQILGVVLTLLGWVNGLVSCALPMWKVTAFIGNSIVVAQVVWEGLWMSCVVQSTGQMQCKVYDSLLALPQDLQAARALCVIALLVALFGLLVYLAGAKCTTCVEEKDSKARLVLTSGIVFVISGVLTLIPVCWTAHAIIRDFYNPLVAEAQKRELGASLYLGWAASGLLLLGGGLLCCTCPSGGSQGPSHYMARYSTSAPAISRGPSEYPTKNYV
- ASSAY_PROTOCOL: FACS, AF647-labelled mAb, OVCA429 cells
Answers are plain numbers, as −log10 of the molar value.

AB18 (antibody, V domains shown, Labelled with Alexa Fluor 647 NHS ester for FACS) VH: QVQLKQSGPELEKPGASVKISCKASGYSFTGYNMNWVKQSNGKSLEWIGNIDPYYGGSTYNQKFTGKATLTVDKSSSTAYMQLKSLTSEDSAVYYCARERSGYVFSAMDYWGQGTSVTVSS VL: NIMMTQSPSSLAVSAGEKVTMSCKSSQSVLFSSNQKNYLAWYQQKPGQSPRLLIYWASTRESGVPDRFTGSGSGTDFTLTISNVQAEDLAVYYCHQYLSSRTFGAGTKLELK | 5.61

Turning now to a further record.
Request the reported pEC50 associated with AB8 (antibody, V domains shown, Labelled with Alexa Fluor 647 NHS ester for FACS) VH: QVQLQQSGAELARPGASVKMSCKASGYTFTTYTMHWLKQRPGQGLEWIGYINPRSGYSNYNQKFKDKATLTADKSSNTAYMQLNTLTSEDSKVYYCSRGELGGFAYWGQGTLVTVSA VL: DVVMTQTPLSLPVSLGDQASISCRSSQSLVHSDGNTYLYWYLQKPGQSPKLLIYKVSNRFSGVPDRFSGSGSGTDFTLKISRVEAEDLGVYFCSQSTHVPYTFGGGTKLEIK
5.96
